Molecular target: Histone deacetylase 1 (Homo sapiens)
Sequence (Q13547 whole entry): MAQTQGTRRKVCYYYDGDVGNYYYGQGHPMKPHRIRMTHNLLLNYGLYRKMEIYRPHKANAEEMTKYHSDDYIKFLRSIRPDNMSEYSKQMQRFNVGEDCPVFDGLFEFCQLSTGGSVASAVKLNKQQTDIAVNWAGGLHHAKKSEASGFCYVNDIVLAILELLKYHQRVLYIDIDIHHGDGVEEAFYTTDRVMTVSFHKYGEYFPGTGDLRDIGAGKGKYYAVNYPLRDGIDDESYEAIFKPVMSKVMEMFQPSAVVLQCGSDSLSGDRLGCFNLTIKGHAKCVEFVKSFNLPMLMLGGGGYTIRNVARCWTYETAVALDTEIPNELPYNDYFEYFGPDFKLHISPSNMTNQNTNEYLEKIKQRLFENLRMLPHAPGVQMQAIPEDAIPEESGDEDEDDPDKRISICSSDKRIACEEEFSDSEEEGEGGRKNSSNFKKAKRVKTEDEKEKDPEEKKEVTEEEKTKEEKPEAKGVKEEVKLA
Assay: Inhibition of recombinant human HDAC1 using ZMAL (Z-(Ac)Lys-AMC as substrate incubated for 20 mins at 10 uM and measured by homogenous fluorescence assay relative to control
ENDPOINT NAME: inhibition (%)

smiles=Cn1cc(CN2CCC(/C=C/C(=O)NO)CC2)c2ccccc21 units_label=% result_value=67
smiles=O=C(/C=C/C1CCN(Cc2cccc(Cl)c2)CC1)NO units_label=% result_value=67
smiles=CN1CCN(Cc2ccc(C(=O)NO)cc2)CC1 units_label=% result_value=54
smiles=O=C(NO)c1ccc(CNCc2ccccc2)cc1 units_label=% result_value=49
smiles=O=C(NO)c1ccc(CNCc2ccsc2)cc1 units_label=% result_value=50
smiles=O=C(/C=C/C1CCN(CCc2c[nH]c3ccccc23)CC1)NO units_label=% result_value=54
smiles=O=C(/C=C/C1CCN(Cc2csc3ccccc23)CC1)NO units_label=% result_value=66

====

Biological target: Protein deacetylase HDAC6 (Homo sapiens, UniProt Q9UBN7)
Sequence (Q9UBN7 whole entry): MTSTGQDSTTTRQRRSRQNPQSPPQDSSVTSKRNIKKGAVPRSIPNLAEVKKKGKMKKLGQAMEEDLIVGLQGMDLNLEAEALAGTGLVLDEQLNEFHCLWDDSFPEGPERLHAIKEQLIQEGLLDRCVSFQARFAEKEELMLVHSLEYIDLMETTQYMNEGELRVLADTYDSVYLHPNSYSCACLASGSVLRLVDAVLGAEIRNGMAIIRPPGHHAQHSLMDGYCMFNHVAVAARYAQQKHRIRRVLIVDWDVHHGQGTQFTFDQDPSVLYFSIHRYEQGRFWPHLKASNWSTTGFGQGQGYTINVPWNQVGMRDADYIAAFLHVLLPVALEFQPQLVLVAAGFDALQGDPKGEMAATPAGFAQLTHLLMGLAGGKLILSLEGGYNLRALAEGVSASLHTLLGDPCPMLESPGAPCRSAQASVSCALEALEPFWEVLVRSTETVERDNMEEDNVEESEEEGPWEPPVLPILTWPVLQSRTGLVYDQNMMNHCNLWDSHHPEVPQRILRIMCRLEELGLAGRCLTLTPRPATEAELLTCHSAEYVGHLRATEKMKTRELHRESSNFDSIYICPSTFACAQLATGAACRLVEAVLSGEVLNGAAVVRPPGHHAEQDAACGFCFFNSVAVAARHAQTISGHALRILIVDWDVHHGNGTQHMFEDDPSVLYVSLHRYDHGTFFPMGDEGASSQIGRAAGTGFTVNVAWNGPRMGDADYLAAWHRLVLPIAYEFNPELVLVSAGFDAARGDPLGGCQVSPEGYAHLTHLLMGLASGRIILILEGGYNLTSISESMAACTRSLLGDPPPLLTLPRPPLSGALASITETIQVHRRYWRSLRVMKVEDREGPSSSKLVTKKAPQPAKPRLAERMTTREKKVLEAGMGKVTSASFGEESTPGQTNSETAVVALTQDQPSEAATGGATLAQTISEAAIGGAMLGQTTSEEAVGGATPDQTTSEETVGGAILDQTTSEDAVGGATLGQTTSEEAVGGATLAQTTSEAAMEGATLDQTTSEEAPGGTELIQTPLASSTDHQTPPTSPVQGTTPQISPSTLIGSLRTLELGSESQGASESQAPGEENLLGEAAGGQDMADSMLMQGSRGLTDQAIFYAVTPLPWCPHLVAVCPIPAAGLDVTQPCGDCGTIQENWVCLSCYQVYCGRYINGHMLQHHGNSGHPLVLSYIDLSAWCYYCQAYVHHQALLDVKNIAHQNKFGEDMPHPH
Assay: Inhibition of recombinant human HDAC6 using ZMAL (Z-(Ac)Lys-AMC as substrate incubated for 20 mins and measured by homogenous fluorescence assay
ENDPOINT NAME: IC50 (nM)

smiles=CN1CCN(Cc2ccc(C(=O)NO)cc2)CC1 result_value=280
smiles=O=C(NO)c1ccc(CNCc2cccs2)cc1 result_value=158
smiles=O=C(/C=C/C1CCN(Cc2cccc3ccccc23)CC1)NO result_value=3700

[I] O=C(/C=C/C1CCN(CCc2ccccc2)CC1)NO
[II] Cn1cc(CN2CCC(/C=C/C(=O)NO)CC2)c2ccccc21
[III] O=C(NO)c1ccc(CNCc2ccccc2)cc1
[IV] O=C(/C=C/C1CCN(Cc2csc3ccccc23)CC1)NO
[V] O=C(/C=C/C1CCN(Cc2ccc(Cl)cc2)CC1)NO
// sort entries: IC50, high to low Your answer should be the labels, listed in the requested order.
I, II, IV, V, III
(I: 4400 nM, II: 2420 nM, IV: 1400 nM, V: 430 nM, III: 210 nM)
